Listed below: growth inhibition values for each entry.
- method-notes: NCI Yeast Anticancer Drug Screen. Data for the sgs1 mgt1 strain (AID 161);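 also: 0% = growth of cultures given vehicle only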
- assay-context: S. cerevisiae sgs1 mgt1 strain, at 50.0 µM, hits give high values
Compounds without any hit were thinned out: in the full panel of roughly 79,000, 15% have a hit. *1 amine or outer side, *2 acyl side, *3 side chain or, on linkers, in order; H or OH if unused. Where a SMILES comes first, the peptide text is derived from it. Bridges are numbered along the chain shown (N, C = ends). Roman numbers before positions name the chains, in order. [ ]: non-standard residue; d: D form. ξ: configuration not given here. Actinocin(1to9) = Cc1c2oc3c(C)ccc(C(=O)[*:2])c3nc-2c(C(=O)[*:1])c(N)c1=O; NMeV = CN[CH](C(=O)O)C(C)C; ξD = NC(CC(=O)O)C(=O)O; Sar = CNCC(=O)O
reported-metric: growth inhibition (%)

{"compound": "NCC(=O)NC(CC(=O)O)C(=O)O (stereo not drawn) (H-Gly-[ξD]-OH)", "reported-metric": "growth inhibition", "measure-unit": "%", "assay-value": 13.2}
{"compound": "CCC(C)C1NC(=O)C(NC(=O)c2c3nc4c(C(=O)NC5C(=O)NC(C(C)CC)C(=O)N6CCCC6C(=O)N(C)CC(=O)N(C)C(C(C)C)C(=O)OC5C)ccc(C)c4oc-3c(C)c(=O)c2N)C(C)OC(=O)C(C(C)C)N(C)C(=O)CN(C)C(=O)C2CCCN2C1=O (stereo not drawn) (I: TIP[Sar][NMeV] / II: TIP[Sar][NMeV]; ester I:1-I:C, II:1-II:C; linker I:N-II:N via Actinocin(1to9); configuration not given here)", "reported-metric": "growth inhibition", "measure-unit": "%", "assay-value": 92.5}
{"compound": "CN(C)c1ccc(/C=C/c2sc3ccc4ccccc4c3[n+]2C)cc1", "reported-metric": "growth inhibition", "measure-unit": "%", "assay-value": 90.2}
{"compound": "Oc1ccc(Cl)cc1Cc1cc(Cl)ccc1O", "reported-metric": "growth inhibition", "measure-unit": "%", "assay-value": -2.55}
{"compound": "COC(=O)[C@]1(C)CCC[C@@]2(C)[C@@H]3C[C@@H]4[C@H]5C[C@@]3(CC[C@@H]21)C[C@@]45C", "reported-metric": "growth inhibition", "measure-unit": "%", "assay-value": 93.7}
{"compound": "COC(=O)[C@]1(C)CCC[C@]2(C)c3ccc(C(C)C)cc3C(=O)[C@@H](Br)[C@@H]12", "reported-metric": "growth inhibition", "measure-unit": "%", "assay-value": 63.5}
{"compound": "COc1ccc(/C=C2/C(=O)ON=C2C)cc1", "reported-metric": "growth inhibition", "measure-unit": "%", "assay-value": 41.8}
{"compound": "COc1ccc(Nc2nc3ccc(C(F)(F)F)cc3nc2C(=O)O)cc1", "reported-metric": "growth inhibition", "measure-unit": "%", "assay-value": 40.6}
{"compound": "O=C(OC12CC3CC(CC(C3)C1)C2)c1ccc(NCc2cc(O)ccc2O)cc1", "reported-metric": "growth inhibition", "measure-unit": "%", "assay-value": 90.8}
{"compound": "S=C(SSC(=S)N1CCOCC1)N1CCOCC1", "reported-metric": "growth inhibition", "measure-unit": "%", "assay-value": 99.2}
{"compound": "CCCCCCCCCCCC1=NCCCN1CCCC", "reported-metric": "growth inhibition", "measure-unit": "%", "assay-value": 84.3}
{"compound": "CC1OC(OC2C(OC3CCC4(C)C(CCC5(C)C4CC=C4C6CC(C)(C)CCC6(C(=O)O)CCC45C)C3(C)CO)OCC(O)C2O)C(O)C(O)C1O (stereo not drawn)", "reported-metric": "growth inhibition", "measure-unit": "%", "assay-value": 90.3}
{"compound": "COc1cc2c(c(OC)c1OC)-c1ccc(NCc3ccccc3)c(=O)cc1[C@@H](NC(C)=O)CC2", "reported-metric": "growth inhibition", "measure-unit": "%", "assay-value": 68.3}
{"compound": "CC(C)(C)CC(C)(C)c1ccc(OCCOCCSC(=N)N)cc1", "reported-metric": "growth inhibition", "measure-unit": "%", "assay-value": 40.1}
{"compound": "COc1ccc2c(c1)c(CC(=O)O)c(C)n2C(=O)c1ccc(Cl)cc1", "reported-metric": "growth inhibition", "measure-unit": "%", "assay-value": 88.7}
{"compound": "O=C1C(=O)c2cccnc2-c2ncccc21", "reported-metric": "growth inhibition", "measure-unit": "%", "assay-value": 93.2}
{"compound": "S=c1[nH]c2cc(Cl)ccc2s1", "reported-metric": "growth inhibition", "measure-unit": "%", "assay-value": 74.6}
{"compound": "CC1(C)CCCC2=C1C(=O)N(SC(Cl)(Cl)Cl)C2=O", "reported-metric": "growth inhibition", "measure-unit": "%", "assay-value": 90.5}

----------
- method-notes: NCI Yeast Anticancer Drug Screen. Data for the bub3 strain (AID 167)
- assay-context: S. cerevisiae bub3 mutant strain, at 50.0 µM
About 79,000 compounds went through this panel and 15% of them were active in at least one assay; those are over-represented in the sample as a whole. Calls of active or inactive are those of the source. Rule as the data show it: active = growth inhibition above about 70%; inactive = the rest. *1 amine or outer side, *2 acyl side, *3 side chain or, on linkers, in order; H or OH if unused. Where a SMILES comes first, the peptide text is derived from it. [ ]: non-standard residue; d: D form. The star is where a group is joined. X5 = CCC(=O)CC1CC(C)CC(C(=O)[*:2])N1[*:1]; X4 = CCCCCCCCC(C)C(=O)*; Aib = CC(C)(N)C(=O)O; X6 = CC(CN(C)CCO)N*
Outcome codes: Yes for active, No for inactive

{"compound": "Oc1ccc2c(c1)CCc1ccccc1-2", "classification": "Yes"}
{"compound": "COc1cc(/C=C/C(=O)CC(=O)/C=C/c2ccc(O)c(OC)c2)ccc1O", "classification": "Yes"}
{"compound": "CCN(CC)CCNC(Cc1ccccc1)c1ccc(OCc2ccccc2)cc1 (configuration not stated)", "classification": "Yes"}
{"compound": "O=C(CCc1ccccc1)ON1C(=S)NC(c2ccccc2)(c2ccccc2)C1=S", "classification": "Yes"}
{"compound": "CCCCCCCCCCCCCCCCSC(=NCC)NCC", "classification": "Yes"}
{"compound": "CN=C(N)N/N=C(\\C)c1ccc2c(c1)Cc1ccccc1-2", "classification": "Yes"}
{"compound": "O=C1C=CC(=O)N1c1cccc2c1CCCC2", "classification": "Yes"}
{"compound": "O=C1C=CC2C3C(=O)N(c4ccccc4)C(=O)C3C1N2Cc1ccccc1 (configuration not stated)", "classification": "No"}
{"compound": "COc1ccc2nc3cc(Cl)ccc3c(NCCCCCN3CCCCC3)c2c1", "classification": "No"}
{"compound": "S=C(S)OCN1CCOCC1", "classification": "Yes"}
{"compound": "c1ccc(-c2cccc(-c3ccccn3)n2)nc1", "classification": "Yes"}
{"compound": "CN(C)CCSC1=Nc2ccc(Cl)cc2C(c2ccccc2Cl)N(C)C1 (configuration not stated)", "classification": "Yes"}
{"compound": "NC(=S)Nc1ccc2c(c1)Cc1ccccc1-2", "classification": "No"}
{"compound": "CN(C)c1ccc(/C=C/c2cc[n+](C)c(/C=C/c3ccc(N(C)C)cc3)c2)cc1", "classification": "Yes"}
{"compound": "CSc1nc(C)c(C(=O)CCN2CCN(c3ccccn3)CC2)s1", "classification": "Yes"}
{"compound": "CN1CCc2cc3c(c4c2C1C(O)c1ccccc1-4)OCO3 (configuration not stated)", "classification": "No"}
{"compound": "COC1CC(C)C(OC)c2cc(O)cc(c2O)NC(=O)/C(C)=C/C=C\\C(C)C(OC(N)=O)/C(C)=C\\C(C)C1OC (configuration not stated)", "classification": "Yes"}
{"compound": "COc1ccc2c(c1)C(N)=C(c1ccccc1)C2=O", "classification": "No"}
{"compound": "CN1CSC(=S)N(Cc2ccccc2)C1", "classification": "Yes"}
{"compound": "CN(C)c1ccc(/C=C/c2ccnc3ccccc23)cc1", "classification": "Yes"}
{"compound": "CCCCCCCCC(C)C(=O)N1CCCC1C(=O)N1C(CC(=O)CC)CC(C)CC1C(=O)NC(C)C(=O)NC(C)(C)C(=O)NC(C)(C)C(=O)NC(C(=O)NC(C)C(=O)NC(C)(C)C(=O)NC(C)(C)C(=O)NC(C)CN(C)CCO)C(C)CC (configuration not stated) (X4-P[X5]A[Aib][Aib]IA[Aib][Aib]-X6; configuration not given here)", "classification": "Yes"}
{"compound": "CCCOS(=O)(=O)c1ccccc1", "classification": "No"}

----------
- method-notes: NCI Yeast Anticancer Drug Screen. Data for the mlh1 rad18 strain (AID 175)
- assay-context: S. cerevisiae mlh1 rad18 strain growth inhibition; at 50.0 µM; hits give high values
The panel holds about 79,000 compounds, 15% with a hit somewhere; the sample as a whole holds those more often.
Listed below: growth inhibition values for each entry.

{"molecule": "O=C(CCl)N(c1ccccc1)c1ccccc1", "growth inhibition, %": 92.8}
{"molecule": "Oc1c(Cl)cc(Cl)cc1C=NCC1CCC(CN=Cc2cc(Cl)cc(Cl)c2O)CC1 (configuration not stated)", "growth inhibition, %": 85.8}
{"molecule": "Nc1nc(-c2ccccc2)nc(N)c1N=O", "growth inhibition, %": 88.5}
{"molecule": "N#CCc1cccc2ccccc12", "growth inhibition, %": 5}
{"molecule": "CCOC(=O)/C(=C\\c1ccc2ccccc2c1)P(=O)(OCC)OCC", "growth inhibition, %": 59.3}
{"molecule": "CCC[CH2][Sn]([CH2]CCC)([CH2]CCC)[O]C(=O)C(OC(C)=O)c1ccccc1 (configuration not stated)", "growth inhibition, %": 91}
{"molecule": "O=C(O)c1cccc2cccc(-c3c4ccc(=O)c(O)c-4oc4c(O)c(O)ccc34)c12", "growth inhibition, %": 85.7}
{"molecule": "Cc1nnc(N/N=C/c2ccc([N+](=O)[O-])o2)[nH]c1=O", "growth inhibition, %": 71}
{"molecule": "S=C(S)OCN1CCOCC1", "growth inhibition, %": 98.2}
{"molecule": "NC(=S)N/N=C\\c1nccc2c(N)cccc12", "growth inhibition, %": 67.5}
{"molecule": "CC1CC(C)(C)OB(OC(C)CC(C)(C)OB2OC(C)CC(C)(C)O2)O1 (configuration not stated)", "growth inhibition, %": -32.9}
{"molecule": "CN(C)c1ccc(/C=C/c2ccnc3ccccc23)cc1", "growth inhibition, %": 89.1}
